- Tested System: T1, human glycophorin A in the red blood cell membrane (human, UniProt P02724 20-150)
- T1 construct: whole, on cells; used for intact RBC, isolated RBC membranes and transfected cells; the assay field tells which; also called GPA; hGPA
- T1 sequence (looked up): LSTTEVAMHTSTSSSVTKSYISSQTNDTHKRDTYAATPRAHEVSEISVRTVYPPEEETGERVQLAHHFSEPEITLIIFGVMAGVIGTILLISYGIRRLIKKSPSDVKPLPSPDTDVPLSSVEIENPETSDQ
- Assay Summary: ELISA, human RBC membranes;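 note: antibodies bound to isolated human red blood cell membrane ghosts coated on 96-well plates, tested 1.5 h at room temperature, bound antibody quantified with a detection antibody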
// assign 1 (yes) if binding by ELISA relative to parental falls strictly below 1, else 0 (no) (ties count as 0 (no))

Answered examples (6):
| Binder | Discrete Label |
| --- | --- |
| TPP-5354 (Fab, V domains shown, also called VL: (F93Y)) VH: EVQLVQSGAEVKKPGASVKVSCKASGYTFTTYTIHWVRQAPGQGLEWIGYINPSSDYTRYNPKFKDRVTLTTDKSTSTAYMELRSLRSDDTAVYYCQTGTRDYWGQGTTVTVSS VL: DIQLTQSPSFLSASVGDRVTITCSAASSVSYIYWFQQKPGKAPKLLIYSTSTLPSGVPSRFSGSGSGTEYTLTISSLQPEDFATYYCHQRNSYPFTFGQGTKLEIKR | 1 (yes) |
| TPP-5347 (Fab, V domains shown, also called VL: (F35Y)) VH: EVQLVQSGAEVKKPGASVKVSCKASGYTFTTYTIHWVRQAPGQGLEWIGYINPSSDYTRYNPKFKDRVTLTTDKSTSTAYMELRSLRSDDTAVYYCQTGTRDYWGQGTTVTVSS VL: DIQLTQSPSFLSASVGDRVTITCSAASSVSYIYWYQQKPGKAPKLLIYSTSTLPSGVPSRFSGSGSGTEYTLTISSLQPEDFATYYCHQRNSFPFTFGQGTKLEIKR | 1 (yes) |
| TPP-5349 (Fab, V domains shown, also called VL: (T50A)) VH: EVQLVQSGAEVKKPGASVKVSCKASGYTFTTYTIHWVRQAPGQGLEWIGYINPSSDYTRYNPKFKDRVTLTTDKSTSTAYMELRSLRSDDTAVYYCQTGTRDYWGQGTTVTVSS VL: DIQLTQSPSFLSASVGDRVTITCSAASSVSYIYWFQQKPGKAPKLLIYSASTLPSGVPSRFSGSGSGTEYTLTISSLQPEDFATYYCHQRNSFPFTFGQGTKLEIKR | 1 (yes) |
| TPP-5357 (Fab, V domains shown, also called VL: (S24R)#) VH: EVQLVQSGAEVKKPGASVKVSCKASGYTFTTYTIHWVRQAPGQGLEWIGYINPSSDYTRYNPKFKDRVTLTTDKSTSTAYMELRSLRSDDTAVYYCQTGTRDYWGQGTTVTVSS VL: DIQLTQSPSFLSASVGDRVTITCRAASSVSSYIYWFQQKPGKAPKLLIYSTSTLPSGVPSRFSGSGSGTEYTLTISSLQPEDFATYYCHQRNSFPFTFGQGTKLEIKR | 1 (yes) |
| TPP-5355 (Fab, V domains shown, also called VL: (F95Y)) VH: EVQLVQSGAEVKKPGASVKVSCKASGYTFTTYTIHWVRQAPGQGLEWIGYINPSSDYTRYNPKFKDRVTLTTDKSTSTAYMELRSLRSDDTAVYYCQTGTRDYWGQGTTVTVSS VL: DIQLTQSPSFLSASVGDRVTITCSAASSVSYIYWFQQKPGKAPKLLIYSTSTLPSGVPSRFSGSGSGTEYTLTISSLQPEDFATYYCHQRNSFPYTFGQGTKLEIKR | 0 (no) |
| TPP-5350 (Fab, V domains shown, also called VL: (P54Q)) VH: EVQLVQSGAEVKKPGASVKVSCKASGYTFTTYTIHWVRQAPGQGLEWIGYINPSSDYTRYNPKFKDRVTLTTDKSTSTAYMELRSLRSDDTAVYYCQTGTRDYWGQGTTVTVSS VL: DIQLTQSPSFLSASVGDRVTITCSAASSVSYIYWFQQKPGKAPKLLIYSTSTLQSGVPSRFSGSGSGTEYTLTISSLQPEDFATYYCHQRNSFPFTFGQGTKLEIKR | 0 (no) |

Challenge: Report whether reported binding by ELISA relative to parental is lower than 1 (strictly) for TPP-5331 (Fab, V domains shown, also called VH: (T72R)) VH: EVQLVQSGAEVKKPGASVKVSCKASGYTFTTYTIHWVRQAPGQGLEWIGYINPSSDYTRYNPKFKDRVTLTRDKSTSTAYMELRSLRSDDTAVYYCQTGTRDYWGQGTTVTVSS VL: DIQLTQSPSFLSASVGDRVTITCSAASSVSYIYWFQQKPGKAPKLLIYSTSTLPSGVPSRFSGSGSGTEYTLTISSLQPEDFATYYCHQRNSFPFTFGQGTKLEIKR
Response given: 1 (yes)

Challenge: Further, for TPP-5319 (Fab, V domains shown, also called VH: (I34M)) VH: EVQLVQSGAEVKKPGASVKVSCKASGYTFTTYTMHWVRQAPGQGLEWIGYINPSSDYTRYNPKFKDRVTLTTDKSTSTAYMELRSLRSDDTAVYYCQTGTRDYWGQGTTVTVSS VL: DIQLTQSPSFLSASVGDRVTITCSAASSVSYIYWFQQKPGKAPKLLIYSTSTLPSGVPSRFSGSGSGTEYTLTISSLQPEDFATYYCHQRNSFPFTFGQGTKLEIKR ?
Response given: 1 (yes)

Challenge: # iterate: TPP-5316 (Fab, V domains shown, also called VH: (E1Q)) VH: QVQLVQSGAEVKKPGASVKVSCKASGYTFTTYTIHWVRQAPGQGLEWIGYINPSSDYTRYNPKFKDRVTLTTDKSTSTAYMELRSLRSDDTAVYYCQTGTRDYWGQGTTVTVSS VL: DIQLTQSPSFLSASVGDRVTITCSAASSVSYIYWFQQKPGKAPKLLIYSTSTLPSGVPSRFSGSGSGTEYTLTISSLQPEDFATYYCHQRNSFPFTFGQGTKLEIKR
Response given: 0 (no)

Challenge: Repeat with TPP-5345 (Fab, V domains shown, also called VL: (I32L)) VH: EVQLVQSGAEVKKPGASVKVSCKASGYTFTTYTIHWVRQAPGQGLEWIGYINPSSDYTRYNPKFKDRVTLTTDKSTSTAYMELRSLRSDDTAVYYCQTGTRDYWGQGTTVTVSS VL: DIQLTQSPSFLSASVGDRVTITCSAASSVSYLYWFQQKPGKAPKLLIYSTSTLPSGVPSRFSGSGSGTEYTLTISSLQPEDFATYYCHQRNSFPFTFGQGTKLEIKR
Response given: 1 (yes)
